Target: T1, purified PP2Aa (8–589) (UniProt P30153 8-589)
T1 construct: As used in ITC and MST
T1 sequence (P30153 8-589): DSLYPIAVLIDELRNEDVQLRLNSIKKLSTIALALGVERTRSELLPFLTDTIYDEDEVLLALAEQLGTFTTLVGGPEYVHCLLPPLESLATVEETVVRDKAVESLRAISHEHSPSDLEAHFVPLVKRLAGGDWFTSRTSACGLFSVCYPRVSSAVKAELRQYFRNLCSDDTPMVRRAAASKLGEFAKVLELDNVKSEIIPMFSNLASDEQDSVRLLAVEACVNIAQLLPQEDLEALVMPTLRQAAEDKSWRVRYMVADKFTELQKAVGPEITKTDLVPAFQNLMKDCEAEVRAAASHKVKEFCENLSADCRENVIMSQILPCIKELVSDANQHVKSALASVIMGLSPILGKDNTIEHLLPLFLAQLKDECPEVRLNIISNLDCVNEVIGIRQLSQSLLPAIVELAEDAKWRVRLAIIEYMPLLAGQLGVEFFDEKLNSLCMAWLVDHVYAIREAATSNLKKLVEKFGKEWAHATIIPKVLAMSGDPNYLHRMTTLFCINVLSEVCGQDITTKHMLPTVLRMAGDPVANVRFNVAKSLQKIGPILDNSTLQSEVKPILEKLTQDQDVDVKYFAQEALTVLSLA
Assay: MST; Monolith NT.115, 25 °C, fluorescent-labeled protein; STRN3 to PP2Aa, also with DSF or TH added
Conditions: both partners purified
experimental-endpoint: pKd
One number for each entry, as −log10 of the molar value.

Input line: Looking for the measured pKd of STRN3 (64–145) (domain or fragment, UniProt Q13033 64-145, looked up, STRN3 (striatin-3), amino acid 64-145) TIPGILHYIQHEWARFEMERAHWEVERAELQARIAFLQGERKGQENLKKDLVRRIKMLEYALKQERAKYHKLKYGTELNQGD , can you help?
Output line: 4.68
